Recorded z-score by entry
test: CREB reporter modulators under forskolin, primary screen, cell-based, PC12, CRE-LacZ reporter, forskolin-stimulated (AID 1146); conditions: luminescence, 4.5 h, higher = more signal, called active from +8 up or from −8 down;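 note: PC12 cells with 6xCRE LacZ reporter stimulated by forskolin 10 µM; beta-galactosidase reporter signal reflecting CREB driven transcription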
Reply: number alone, nothing else.

COMPOUND: COc1ccc(COC(=O)NN=C2C[C@@H](O)[C@@H](O)[C@@H]3[C@@H]4C(=O)N(c5ccc(F)cc5F)C(=O)[C@@H]4CC[C@@H]23)cc1
NUMERIC_RESULT: -0.0874
--
COMPOUND: CCN1C(=O)[C@H]2[C@H]3[C@H](O)[C@H](O)CC(=NOCc4ccccc4)[C@H]3CC[C@H]2C1=O
NUMERIC_RESULT: -0.332
--
COMPOUND: CCN1C(=O)[C@H]2[C@H]3[C@H](O)[C@H](O)CC(=NO[C@@H]4O[C@H](CO)[C@@H](O)[C@H](O)[C@H]4O)[C@@H]3CC[C@H]2C1=O
NUMERIC_RESULT: -0.951
--
COMPOUND: O=C1[C@H]2[C@H]3[C@H](O)[C@H](O)CC(=NOC[C@@H](O)COCc4ccco4)[C@@H]3CC[C@H]2C(=O)N1c1ccc(F)cc1F
NUMERIC_RESULT: -0.0097

Next:
response.value for "CCc1cc2c(nc1CC)CCN(CCC(C)=NOC[C@@H](O)COCc1ccco1)C2" (field: z-score) = 0.785

----------
test system: Plasmodium falciparum Sir2 (PF13_0152, Sir2A); experiment: pfSir2 binders on small-molecule microarrays, primary screen, biochemical, small-molecule microarray, 635 nm fluorescence (AID 1098); conditions: small-molecule microarray binding, fluorescence 635 nm; higher = more signal;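 note: score merges spot fluorescence intensity with its signal-to-noise ratio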
Assign fulfilled to entries whose composite z-score meets or exceeds 0.4; assign not fulfilled to the rest.

Worked examples follow.
COMPOUND: C=COC[C@H]1CN2[C@@H](CC[C@@H](C)[C@@H]2c2ccc(Br)cc2)C(=O)O1
LABEL_VALUE: fulfilled
--
COMPOUND: CC(C)CN1CCc2nc(-c3ccccc3)c3c(c2CC1)CO[C@@H](C)C3
LABEL_VALUE: not fulfilled
--
COMPOUND: CC(C)=CCCC(C)=CCON=C1[C@H]2CCn3c(=O)n(C)c(=O)n3[C@H]2[C@H](O)[C@@H]2O[C@H]12
LABEL_VALUE: fulfilled
--
COMPOUND: Cc1ccc(S[C@]2(C(=O)NCC(F)(F)F)CC(=O)N(Cc3ccccc3Cl)[C@@H]2c2ccc(CO)cc2I)cc1
LABEL_VALUE: fulfilled
--
COMPOUND: CCCC[C@@H]1C[C@H]1[C@@H](NS(=O)(=O)c1cccc2cccnc12)c1ccc(-c2ccccc2)cc1
LABEL_VALUE: not fulfilled

# bool: composite z-score of "O=C1C[C@@H](O)[C@@H](O)[C@@H]2[C@@H]3C(=O)N(c4cccc(Oc5ccccc5)c4)C(=O)[C@@H]3CC[C@@H]12" >= 0.4
fulfilled

# bool: composite z-score of "CCOC(=O)NN=C1C[C@@H](O)[C@@H](O)[C@@H]2[C@@H]3C(=O)N(CC)C(=O)[C@@H]3CC[C@@H]12" >= 0.4
not fulfilled

# bool: composite z-score of "C=CC[C@@H]1C=C[C@H](ON=C2c3cc(OC)ccc3O[C@H](c3cccc(OC)c3)[C@H]2O)[C@@H](CO)O1" >= 0.4
not fulfilled

# bool: composite z-score of "[N-]=[N+]=NCc1ccccc1C[C@]1(C(=O)NCc2ccccc2)N=C(c2ccc(OCCCO)cc2)O[C@H]1c1ccccc1N=[N+]=[N-]" >= 0.4
fulfilled

# bool: composite z-score of "CO[C@H]1O[C@H](CO)[C@@H](OC(=O)Nc2ccc(C#N)cc2)[C@H](OC(=O)c2cc3ccccc3[nH]2)[C@H]1OC(=O)c1cc2ccccc2[nH]1" >= 0.4
fulfilled

# bool: composite z-score of "O=C1[C@H]2[C@H]3[C@H](O)[C@H](O)CC(=NOCc4ccccc4)[C@@H]3CC[C@H]2C(=O)N1C1CCCCC1" >= 0.4
fulfilled

# bool: composite z-score of "CC(C)CON=C1C[C@@H](O)[C@@H](O)[C@@H]2[C@@H]3C(=O)N(C[C@@H]4CCCO4)C(=O)[C@@H]3CC[C@H]12" >= 0.4
fulfilled

# bool: composite z-score of "C=C(CCCC)C(=O)CC[C@@H](OC(C)=O)c1cccc(OCCO)c1" >= 0.4
fulfilled

# bool: composite z-score of "O=C1[C@H]2[C@H]3[C@H](O)[C@H](O)CC(=NO[C@@H]4O[C@H](CO)[C@@H](O)[C@H](O)[C@H]4O)[C@@H]3CC[C@H]2C(=O)N1Cc1ccccc1" >= 0.4
not fulfilled

# bool: composite z-score of CCCCCN1CC=CC23O[C@@H]4C=CCOC(=O)[C@@H]4[C@H]2C(=O)N(C(CO)C(C)C)[C@@H]3C1=O (stereo partly specified) >= 0.4
fulfilled

# bool: composite z-score of COC(=O)C1=CCC(c2cccc(Cl)c2)O1 (stereo unspecified) >= 0.4
fulfilled

# bool: composite z-score of "CN(C)C(=O)[C@@]1(Cc2ccccc2)N=C(c2ccc(OCCCO)cc2)O[C@H]1c1ccccc1CN=[N+]=[N-]" >= 0.4
fulfilled

# bool: composite z-score of "C[C@H](c1ccccc1)N1C(=O)[C@H]2[C@@H]3C(=CC[C@H]2C1=O)C(=O)[C@H]1O[C@H]1[C@H]3O" >= 0.4
fulfilled

# bool: composite z-score of Cc1cc2c(nc1C)CCCN2CC(O)CN1CCN(C)CC1 (stereo unspecified) >= 0.4
fulfilled

# bool: composite z-score of "Cc1cc(C)c(-c2cc([C@H](C)ON=C3[C@H]4CCn5c(=O)n(-c6ccccc6)c(=O)n5[C@H]4[C@H](O)[C@@H]4O[C@H]34)on2)c(C)c1" >= 0.4
not fulfilled

# bool: composite z-score of "O=C1C[C@@H](O)[C@@H](O)[C@@H]2[C@@H]3C(=O)N(C4CCCCC4)C(=O)[C@@H]3CC[C@H]12" >= 0.4
fulfilled

# bool: composite z-score of "CO[C@@H]1COC(=O)CCC[C@@H](C)[C@H](OC)COC(=O)[C@H](Cc2ccccc2)NC(=O)CC=C[C@H]1C" >= 0.4
fulfilled

# bool: composite z-score of "C[C@@H]1C=CCC(=O)OC[C@H](C)C(=O)OC[C@H]2O[C@H]1C=C[C@H]2O" >= 0.4
not fulfilled

# bool: composite z-score of "CO[C@H]1O[C@H](CO)[C@@H](OC(=O)Nc2ccc3c(c2)OCO3)[C@H](OC(=O)Nc2ccccc2-c2ccccc2)[C@@H]1OC(=O)Nc1ccccc1-c1ccccc1" >= 0.4
fulfilled

# bool: composite z-score of "O=C1C[C@@H](O)[C@@H](O)[C@@H]2[C@@H]3C(=O)N(c4ccc(F)cc4F)C(=O)[C@@H]3CC[C@@H]12" >= 0.4
not fulfilled

# bool: composite z-score of "O=C1[C@H]2[C@H]3[C@H](O)[C@H](O)CC(=NOCc4ccccc4)[C@H]3CC[C@H]2C(=O)N1C[C@@H]1CCCO1" >= 0.4
fulfilled

# bool: composite z-score of O[C@@H](Cc1ccccc1)[C@H]1C2C=CCCC(c3ccccc3)=C2CN1Cc1cccc(Cl)c1 (stereo partly specified) >= 0.4
not fulfilled

# bool: composite z-score of "O=C1C2=CC[C@H]3C(=O)N(Cc4ccc5c(c4)OCO5)C(=O)[C@H]3[C@H]2[C@H](O)[C@@H]2O[C@H]12" >= 0.4
fulfilled

----------
experiment: osmotic lysis modulators in infected erythrocytes, primary screen, PSAC antagonist project, cell-based, P. falciparum Indochina, OD700, 3 h (AID 1156); conditions: higher = more signal, called active from +8 up or from −8 down
Activity calls are given as the source filed them.
EXPERIMENTAL_ENDPOINT: z-score

COMPOUND: O=C1C[C@]2(c3ccc([N+](=O)[O-])cc3)C(=O)N(CCN3CCOCC3)c3cc(CO)ccc3[C@H]2N1CC12CC3CC(CC(C3)C1)C2
z-score: 1.68 (inactive)
--
COMPOUND: CO[C@H]1COC(=O)[C@H](C)COC(=O)CC=C[C@@H](C)[C@H](OC)COC(=O)CC=C[C@@H]1C
z-score: -0.654 (inactive)
--
COMPOUND: CCCC[C@@H](O)C1=C(C)C[C@H]2C(=O)N(Cc3ccccc3)C(=O)[C@H]2[C@H]1CO
z-score: -0.347 (inactive)

response.value for "C=C(/C(=C/C[C@@H](OC(=O)c1ccncc1)c1ccc(OCCO)cc1)c1cnc2ccccc2c1)C(C)C" (field: z-score) = -1.77 (inactive)

response.value for "COc1ccc(O[C@H]2C=C[C@@H](c3ccccc3)O[C@@H]2COC(=O)N2CCCCC2)cc1" (field: z-score) = -0.0257 (inactive)

response.value for "CN(C)CCCNC(=O)[C@@H]1c2ccccc2C(=O)N(Cc2ccccc2)[C@H]1c1ccc(CO)cc1" (field: z-score) = 2.64 (inactive)

response.value for N#Cc1ccc(NN2C(C(O)c3cc(C(F)(F)F)cc(C(F)(F)F)c3)C=CC3C(=O)N(c4ccccc4)C(=O)C32)cc1 (stereo unspecified) (field: z-score) = -3.13 (inactive)
